Tested on: LXRb homodimer (NR concentration 270 nM)
Assay: PBM binding z-score (relative to random genomic background probes); higher = stronger binding; sequences stand for … in GC…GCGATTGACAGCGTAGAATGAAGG
measurementName: PBM binding z-score
Respond with the number and no other words.

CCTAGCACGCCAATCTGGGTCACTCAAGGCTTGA    -0.333
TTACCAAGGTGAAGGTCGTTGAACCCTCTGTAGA    -0.723
TTTGCTAGGTCAGTTGGTCAGCTAACGAGCTGCC    0.521
TCTATTAGTTGAAGGGCAACCGTCGAGTCCGTTT    0.191
CGAACTAGGTCATTGACAGAACAGTGAATAGTAA    0.18

Entry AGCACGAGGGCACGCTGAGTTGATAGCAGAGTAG : reported PBM binding z-score = ?
-1.28

Can you share its PBM binding z-score? I mean this sequence: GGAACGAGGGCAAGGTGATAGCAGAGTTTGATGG
-0.496

// lookup PBM binding z-score for CGTCCAAGCTCAGAGAGGTCAGTGAATGCCGAGT
-0.498

State the recorded PBM binding z-score for this entry: CCAACTGGGCCACGAAAGGTCATTGATTCAGTGA
0.134

Item under review: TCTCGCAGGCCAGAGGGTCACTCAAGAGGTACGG . Reported PBM binding z-score?
-1.09

So what does the record say about PBM binding z-score for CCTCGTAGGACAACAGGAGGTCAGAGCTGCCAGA ?
-0.267

What value of PBM binding z-score has been recorded for this entry: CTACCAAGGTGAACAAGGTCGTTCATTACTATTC
0.239
